Molecular target: human PRMT8 (Homo sapiens, UniProt Q9NR22)
Sequence (Q9NR22 whole entry): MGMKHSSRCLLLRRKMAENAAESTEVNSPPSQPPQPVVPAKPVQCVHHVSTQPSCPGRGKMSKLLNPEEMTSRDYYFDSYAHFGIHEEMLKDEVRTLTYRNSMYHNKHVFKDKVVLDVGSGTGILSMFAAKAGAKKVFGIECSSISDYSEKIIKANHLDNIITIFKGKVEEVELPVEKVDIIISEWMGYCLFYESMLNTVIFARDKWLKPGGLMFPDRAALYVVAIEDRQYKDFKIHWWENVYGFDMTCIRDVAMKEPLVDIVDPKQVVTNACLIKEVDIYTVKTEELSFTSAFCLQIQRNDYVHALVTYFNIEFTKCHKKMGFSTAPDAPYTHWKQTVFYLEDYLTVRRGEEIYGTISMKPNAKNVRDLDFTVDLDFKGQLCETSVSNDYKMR
Test: PRMT8 Biochemical Assay
Conditions: PRMT8 IC50 (uM), peptide substrate, 3H-SAM Flashplate assay
MEASURE: IC50 (µM)
Numeric only. Scale: µM

Per the records, this molecule ( CNCCN(C)Cc1c[nH]nc1-c1ccc(OCCOc2cccc(C(C)C)c2)cc1 ) has IC50 equal to 0.0363

Per the records, this molecule ( CNCCN(C)Cc1ccnn1C1CCC2(CCCO2)CC1 (stereo not drawn) ) has IC50 equal to 0.0445

Per the records, this molecule ( CNCCN(C)Cc1c[nH]nc1-c1cc(OCC2CCOC2)cc(C(F)(F)F)c1 (stereo not drawn) ) has IC50 equal to 0.226

Per the records, this molecule ( COCCCOc1cc(-c2n[nH]cc2CN(C)CCN)cc(C(F)(F)F)c1Cl ) has IC50 equal to 0.563

Per the records, this molecule ( CNCCN(C)Cc1c[nH]nc1-c1ccc(OCCOc2ccccc2)cc1 ) has IC50 equal to 0.0374

Per the records, this molecule ( CNCCN(C)Cc1c[nH]nc1-c1cc(C)c(OCC2CC2)c(C(F)(F)F)c1 ) has IC50 equal to 0.015

Per the records, this molecule ( CNCCN(C)Cc1c[nH]nc1-c1ccc(OCCc2ccccc2)cc1 ) has IC50 equal to 0.0173

Per the records, this molecule ( CNCCN(C)Cc1c[nH]nc1-c1cc(F)c(Cl)c(C(F)(F)F)c1 ) has IC50 equal to 0.037

Per the records, this molecule ( CNCCN(C)Cc1c[nH]nc1-c1ccc(OCCOc2cccc(C(O)CO)c2)cc1 (stereo not drawn) ) has IC50 equal to 0.0398

Per the records, this molecule ( CNCCN(C)Cc1c[nH]nc1-c1ccc(N2CCCC2=O)cc1 ) has IC50 equal to 0.127

Per the records, this molecule ( CNCCN(C)Cc1c[nH]nc1-c1ccc(N(C)CCCOc2ccc(OC)cc2)cc1 [Compound 136] ) has IC50 equal to 0.0124

Per the records, this molecule ( CNCCN(C)Cc1c[nH]nc1-c1ccc(OCC2COC2)cc1 ) has IC50 equal to 0.282

Per the records, this molecule ( CCC(CC)Oc1ccc(-n2nc(C)cc2CN(C)CCNC)cc1 ) has IC50 equal to 0.0299

Per the records, this molecule ( CNCCN(C)Cc1cnn(C)c1-c1ccc(OC2CCOCC2)cc1 ) has IC50 equal to 0.0267

Per the records, this molecule ( CCCOCCOc1cc(-c2n[nH]cc2CN(C)CCNC)cc(C(F)(F)F)c1 ) has IC50 equal to 0.0525

Per the records, this molecule ( COCCOc1cc(-c2n[nH]cc2CN(C)CCN)cc(C(F)(F)F)c1 ) has IC50 equal to 0.158

Per the records, this molecule ( CNCCN(C)Cc1c[nH]nc1-c1ccc(OCCOc2ccc(CO)cc2)cc1 ) has IC50 equal to 0.0206

Per the records, this molecule ( CNCCN(C)Cc1c[nH]nc1-c1ccc(OCCOc2cccc(OCCN3CCOCC3)c2)cc1 ) has IC50 equal to 0.00939

Per the records, this molecule ( CNCCN(C)Cc1c[nH]nc1-c1cc(CC(C)C)cc(OCCOC)c1 ) has IC50 equal to 0.0452

Per the records, this molecule ( CNCCN(C)Cc1c[nH]nc1-c1ccc(N(CCCN2CCOCC2)CC(C)C)nc1 ) has IC50 equal to 0.0312

Per the records, this molecule ( CNCCN(C)Cc1cn[nH]c1-c1ccc(OC2CC(OCCC3CCOCC3)C2)cc1 (stereo not drawn) ) has IC50 equal to 0.223

Per the records, this molecule ( CNCCN(C)Cc1cnn(C)c1-c1cccc(OC2CC2)c1 ) has IC50 equal to 0.0446

Per the records, this molecule ( CNCCN(C)Cc1c[nH]nc1-c1ccc(OC2CC(OCCC(O)CO)C2)cc1 (stereo not drawn) ) has IC50 equal to 0.342

Per the records, this molecule ( CNCCN(C)Cc1c[nH]nc1-c1cnc(OCCCOC)c(C(F)(F)F)c1 ) has IC50 equal to 0.189

Per the records, this molecule ( CNCCN(C)Cc1c[nH]nc1-c1cnc(OCCOC)c(C(F)(F)F)c1 ) has IC50 equal to 0.171

Per the records, this molecule ( CNCCN(C)Cc1c[nH]nc1-c1ccc(OCCOc2ccc(C3CCOCC3)cc2)cc1 ) has IC50 equal to 0.0133

Per the records, this molecule ( CN(CCN)Cc1c[nH]nc1-c1cc(F)c(Cl)c(C(F)(F)F)c1 ) has IC50 equal to 0.0608

Per the records, this molecule ( CCN(CCOc1cccc(OC)c1)c1ccc(-c2n[nH]cc2CN(C)CCNC)cc1 ) has IC50 equal to 0.0367

Per the records, this molecule ( CNCCN(C)Cc1c[nH]nc1-c1cc(CC(F)(F)F)cc(OCCOC)c1 ) has IC50 equal to 0.0511

Per the records, this molecule ( CNCCN(C)Cc1c[nH]nc1-c1ccc(OCCOc2ccc(OCCOC)cc2)cc1 ) has IC50 equal to 0.035
